The measurements presented in this section are drawn from patent US10238670B2.

# ASSAY: Phase 1b study in female adults with cystitis, plasma PK
# Format: in vivo, human
# CONDITION_NOTES: female, human, plasma, oral, 300 mg, plasma, Day 5, IV_PO300; read-out: Tmax, Mean
# Experimental: According to the study design, a randomized (1:1:1), open-label, parallel designed Phase 1b study comparing 3 dosing regimens of Compound 1 (9-[(2,2-dimethyl-propyl amino)-methyl-minocycline) in the treatment of female adults with cystitis was conducted. […] Blood samples were collected and analyzed for Compound 1 concentration at the following times. […]
METRIC: Tmax (h)
Give the quantity in h, number only.

Name the recorded Tmax of the item "CN(C)c1cc(CNCC(C)(C)C)c(O)c2c1C[C@H]1C[C@H]3[C@H](N(C)C)C(O)=C(C(N)=O)C(=O)[C@@]3(O)C(O)=C1C2=O" in your answer.
2.6
